Recorded values, source paper PMC9788556.

- target: T1, Pfs230 D1D2 (aa 587–889) (Plasmodium falciparum, UniProt P68874 587-889)
- T1 chain: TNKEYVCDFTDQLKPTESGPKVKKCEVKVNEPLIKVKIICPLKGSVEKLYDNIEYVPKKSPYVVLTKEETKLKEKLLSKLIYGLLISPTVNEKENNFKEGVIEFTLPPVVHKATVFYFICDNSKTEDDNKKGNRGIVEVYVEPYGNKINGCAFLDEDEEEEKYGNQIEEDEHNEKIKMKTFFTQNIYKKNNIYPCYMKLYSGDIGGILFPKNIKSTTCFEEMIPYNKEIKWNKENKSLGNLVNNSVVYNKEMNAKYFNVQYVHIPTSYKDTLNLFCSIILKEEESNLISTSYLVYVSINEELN
- assay_protocol: BLI
attribute_measured: koff (s⁻¹)
The figure you give is taken to be in s⁻¹; do not add the unit.

- nanobody B4 (VHH) VHH: QVQLQESGGGLVQPGGSLRLSCAASGFTLDYYGIGWFRQAPGKEREGVSCISSSDGSTYYADSVKGRFTISRDNAKNTVYLQMNSLKPEDTAVYYCAADLTGIGCTTAQAMGVIGDFGDFGSWGQGTQVTVSS: 0.00152
- nanobody D6 (VHH) VHH: QVQLQESGGGLVQAGDSLRLSCAASGRTFSSYFMGWFRQAPGKEREFVAAISWSGGSTYYADSVKGRFTISRDNVKNTVYLQMNSLEPEDAAVYYCAGGGSYYPMSPRNGMDYWGKGTQVTVSS: 0.000108
- nanobody G2 (VHH) VHH: QVQLQESGGGLVQAGGSLRLSCAASGRTFSNYFMGWFRQAPGKEREFVAAVSWSGGSTYYADSVKGRLTISRDNAKNTVYLQMNSLKPEDTAVYYCAAGERYFPMEPRRGYDYWGQGTQVTVSS: 0.00016

Now consider the entry below.
Summary for this binder, nanobody E1 (VHH) VHH: QVQLQESGGGLVQPGGSLRLSCAASGRTFSSYFMGWFRQAPGKGRVFVASISWSGGSTYYADSVKGRFTISRDNAENTVYLQMNSLKPEDTAVYYCAAGTRATPLDWASGMDYWGKGTQVTVSS : koff is 0.000409
